# system.under.test: Cannabinoid receptor 1 (Homo sapiens, UniProt P21554)
# Sequence (P21554 whole entry): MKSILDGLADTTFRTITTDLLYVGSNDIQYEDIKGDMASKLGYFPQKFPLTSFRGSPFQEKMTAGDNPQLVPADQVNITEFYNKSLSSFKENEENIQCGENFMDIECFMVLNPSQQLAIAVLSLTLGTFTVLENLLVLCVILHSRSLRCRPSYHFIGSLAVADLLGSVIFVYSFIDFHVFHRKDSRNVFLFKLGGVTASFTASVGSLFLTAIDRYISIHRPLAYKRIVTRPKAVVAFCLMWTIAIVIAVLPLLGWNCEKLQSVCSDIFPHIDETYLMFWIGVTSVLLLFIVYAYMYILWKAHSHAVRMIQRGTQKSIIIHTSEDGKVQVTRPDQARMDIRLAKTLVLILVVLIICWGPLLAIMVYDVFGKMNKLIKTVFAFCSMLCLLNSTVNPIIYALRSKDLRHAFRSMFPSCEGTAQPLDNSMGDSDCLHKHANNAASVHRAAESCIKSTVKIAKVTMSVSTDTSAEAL
Assign labels as follows, please: Criterion met for Ki below 40 nM; Criterion not met for Ki equal to or exceeding 40 nM.

compound: CN/C(=N\S(=O)(=O)N1CCC(F)(F)CC1)C1=NN(c2ccc(Cl)cc2)[C@@H](c2ccccc2)C1
system.under.test: Cannabinoid receptor 1 (Homo sapiens, UniProt P21554)
group: Criterion met
//
compound: CN/C(=N\S(=O)(=O)N1CCC(F)CC1)C1=NN(c2ccc(Cl)cc2)C(c2ccccc2)C1 (centres undefined)
system.under.test: Cannabinoid receptor 1 (Homo sapiens, UniProt P21554)
group: Criterion not met
//
compound: CNC(=NS(=O)(=O)N1CCC(F)(F)CC1)N1C[C@@H](c2ccccc2)C(c2ccc(Cl)cc2)=N1
system.under.test: Cannabinoid receptor 1 (Homo sapiens, UniProt P21554)
group: Criterion not met
//
compound: CN=C(NS(=O)(=O)N1CCC(F)(F)CC1)C1=NN(c2ccc(Cl)cc2)C(c2ccccc2)C1 (centres undefined)
system.under.test: Cannabinoid receptor 1 (Homo sapiens, UniProt P21554)
group: Criterion met
//
compound: CNC(=NS(=O)(=O)N1CCC(F)(F)CC1)N1C[C@H](c2ccccc2)C(c2ccc(Cl)cc2)=N1
system.under.test: Cannabinoid receptor 1 (Homo sapiens, UniProt P21554)
group: Criterion not met
//
compound: CN/C(=N\S(=O)(=O)N1CCC(F)(F)CC1)C1=NN(c2ccc(Cl)cc2)[C@H](c2ccccc2)C1
system.under.test: Cannabinoid receptor 1 (Homo sapiens, UniProt P21554)
group: Criterion not met
//
compound: CNC(=NS(=O)(=O)N1CCC(C(F)(F)F)CC1)C1=NN(c2ccc(Cl)cc2)[C@@H](c2ccccc2)C1
system.under.test: Cannabinoid receptor 1 (Homo sapiens, UniProt P21554)
group: Criterion met
//
compound: CNC(=NS(=O)(=O)N1CCC(F)CC1)N1CC(c2ccccc2)C(c2ccc(Cl)cc2)=N1 (centres undefined)
system.under.test: Cannabinoid receptor 1 (Homo sapiens, UniProt P21554)
group: Criterion met
//
compound: CN/C(=N\S(=O)(=O)c1ccc(Cl)cc1)C1=NN(c2ccc(Cl)cc2Cl)C(c2ccccc2)C1 (centres undefined)
system.under.test: Cannabinoid receptor 1 (Homo sapiens, UniProt P21554)
group: Criterion met
//
compound: CNC(=NS(=O)(=O)N1CCC(C(F)(F)F)CC1)N1C[C@@H](c2ccccc2)C(c2ccc(Cl)cc2)=N1
system.under.test: Cannabinoid receptor 1 (Homo sapiens, UniProt P21554)
group: Criterion not met
//
compound: CN/C(=N\S(=O)(=O)c1cccc(Cl)c1)C1=NN(c2ccc(Cl)cc2Cl)C(c2ccccc2)C1 (centres undefined)
system.under.test: Cannabinoid receptor 1 (Homo sapiens, UniProt P21554)
group: Criterion not met
//
compound: CN/C(=N\S(=O)(=O)c1ccc(F)cc1)C1=NN(c2ccc(Cl)cc2)C(c2ccccc2)C1 (centres undefined)
system.under.test: Cannabinoid receptor 1 (Homo sapiens, UniProt P21554)
group: Criterion met
//
compound: CN/C(=N\S(=O)(=O)c1ccc(Cl)cc1)C1=NN(c2ccc(Cl)cc2)C(c2ccccc2)C1 (centres undefined)
system.under.test: Cannabinoid receptor 1 (Homo sapiens, UniProt P21554)
group: Criterion not met
//
compound: CNC(=NS(=O)(=O)N1CCCCC1)C1=NN(c2ccc(Cl)cc2)C(c2ccccc2)C1 (centres undefined)
system.under.test: Cannabinoid receptor 1 (Homo sapiens, UniProt P21554)
group: Criterion not met
//
compound: CNC(=NS(=O)(=O)N1CCC(C(F)(F)F)CC1)C1=NN(c2ccc(Cl)cc2)[C@H](c2ccccc2)C1
system.under.test: Cannabinoid receptor 1 (Homo sapiens, UniProt P21554)
group: Criterion not met
//
compound: CN/C(=N\S(=O)(=O)N1CCC(C(F)(F)F)CC1)N1CC(c2ccccc2)C(c2ccc(Cl)cc2)=N1 (centres undefined)
system.under.test: Cannabinoid receptor 1 (Homo sapiens, UniProt P21554)
group: Criterion met
//
compound: CN/C(=N\S(=O)(=O)N1CCC(C(F)(F)F)CC1)C1=NN(c2ccc(Cl)cc2)C(c2ccccc2)C1 (centres undefined)
system.under.test: Cannabinoid receptor 1 (Homo sapiens, UniProt P21554)
group: Criterion met
//
compound: CN/C(=N\S(=O)(=O)c1ccc(C(F)(F)F)cc1)C1=NN(c2ccc(Cl)cc2Cl)C(c2ccccc2)C1 (centres undefined)
system.under.test: Cannabinoid receptor 1 (Homo sapiens, UniProt P21554)
group: Criterion met
//
compound: CNC(=NS(=O)(=O)N1CCC(C(F)(F)F)CC1)N1C[C@H](c2ccccc2)C(c2ccc(Cl)cc2)=N1
system.under.test: Cannabinoid receptor 1 (Homo sapiens, UniProt P21554)
group: Criterion met
